B1: glmS ribozyme (parent)
chain: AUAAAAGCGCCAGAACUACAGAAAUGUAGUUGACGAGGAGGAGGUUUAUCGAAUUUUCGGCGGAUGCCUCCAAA

- Variants of: B1
- method_description: self-cleavage kobs at 2500 uM GlcN6P; higher = faster cleavage; RNA array
- condition_info: with glucosamine-6-phosphate
Variants at the floor of the assay were thinned out.
Would you mind labelling by self-cleavage kobs at 2500 uM GlcN6P? At or over 0.0002 s⁻¹ is fulfilled, under is not fulfilled.

Below are worked cases with known answers.
G9C C71U ... not fulfilled
G7U G35U A42G ... not fulfilled
G41U U54G ... fulfilled
U46A ... fulfilled
A42U G44U C61G ... not fulfilled

[in] For this variant, is measured self-cleavage kobs at 2500 uM GlcN6P 0.0002 s⁻¹ or higher? A39U U65C C67G
[out] not fulfilled

[in] What about G35A A53G G60C ?
[out] not fulfilled

[in] Likewise for U46C U65G ?
[out] not fulfilled

[in] Also U55G G66U ?
[out] fulfilled

[in] Entry to check: G32C U47A G62C A64G
[out] not fulfilled

[in] Try this variant next: C11A A14U A36U U46A
[out] not fulfilled

[in] Can you check A53G U69G next?
[out] not fulfilled

[in] Check A39C U47G too.
[out] fulfilled

[in] What about U31G A52G ?
[out] not fulfilled

[in] Thanks! And C16G G40A ?
[out] fulfilled

[in] Please give the result for C8G C11A A33U G44A C58U too.
[out] not fulfilled

[in] Please do the same for C8A A64U as well.
[out] not fulfilled

[in] Similarly, A48U G60C G63C C71U ?
[out] not fulfilled

[in] Moving on to A15U U31A C34A
[out] not fulfilled

[in] Please answer likewise for U55G C58G
[out] not fulfilled

[in] How about C16U U57A C70G ?
[out] not fulfilled

[in] Follow-up entry: G40A G43A
[out] not fulfilled
